Values compiled from PubChem BioAssay (NCI).

Assignment: determine reported growth inhibition for the given molecules.
assay: NCI Yeast Anticancer Drug Screen. Data for the mlh1 rad18 strain (AID 175); settings: S. cerevisiae mlh1 rad18 strain growth inhibition; at 50.0 µM; stronger effect = higher value
Compounds without any hit were thinned out: in the full panel of roughly 79,000, 15% have a hit.
State just the number; it will be interpreted in %.

Prompt: Report growth inhibition, nothing else, for this molecule: Nc1ccc(N=Nc2ccc(OCCN(CCO)CCO)cc2)c(N)n1
Completion: 15.7

Prompt: Look up and state reported growth inhibition for Cc1ccc(N=C(NN(C)C)C(c2ccccc2)c2ccccc2)cc1
Completion: -14.2

Prompt: Please look at this molecule and report its growth inhibition: COC(=O)CCC1(CCC(=O)OC)CCCCCCC(CCC(=O)OC)(CCC(=O)OC)C(=O)C1=O
Completion: 19.8

Prompt: Complete the entry with growth inhibition for CC(=O)[C@@H](C)C(=O)N1C(=O)OC[C@@]12[C@@H]1CC[C@@H](C1)C2(C)C
Completion: -32

Prompt: Determine from records and report growth inhibition for O=C1C2=C(Nc3ccccc3N2)OC1c1ccccc1Cl (stereo not given)
Completion: 4
